What protein stability index was measured for each of the following?
B1: INTS3 (parent)
chain: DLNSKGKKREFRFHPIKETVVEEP

Variants of: B1
Assay: protein stability index of a GFP-peptide fusion (GPS, HEK-293T) (PSI 1-6); higher = more stable;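 further: lentivirally expressed fusions sorted by FACS into six bins by GFP to DsRed ratio, PSI derived from sequencing read proportions per bin multiplied by bin number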
Conditions: c terminus: a fixed tail appended
I only need the number, thanks.

Exercise: What measured protein stability index goes with `DLNSKGKKEEFRFHPIKETVVEEP` ?
Solution: 3.73

Exercise: What measured protein stability index goes with `DLNSIGKKREFRFHPIKETVVEEP` ?
Solution: 2.32

Exercise: What measured protein stability index goes with `DLNSKGKKREFRFHLIKETVVEEP` ?
Solution: 2.82

Exercise: What measured protein stability index goes with `DLYSKGKKREFRFHPIKETVVEEP` ?
Solution: 2.54

Exercise: What measured protein stability index goes with `DLNSKGKKREFRFHPIKETVGEEP` ?
Solution: 1.97

Exercise: What measured protein stability index goes with `DLNSKTKKREFRFHPIKETVVEEP` ?
Solution: 2.38

Exercise: What measured protein stability index goes with `DLNSKWKKREFRFHPIKETVVEEP` ?
Solution: 2.12

Exercise: What measured protein stability index goes with `DLNSKGKKREFRYHPIKETVVEEP` ?
Solution: 2.47

Exercise: What measured protein stability index goes with `DTNSKGKKREFRFHPIKETVVEEP` ?
Solution: 2.28

Exercise: What measured protein stability index goes with `DLNSKGKKPEFRFHPIKETVVEEP` ?
Solution: 2.34

Exercise: What measured protein stability index goes with `DLNSKGKKREFRFHPIVETVVEEP` ?
Solution: 2.69

Exercise: What measured protein stability index goes with `DLNSKGKKREFRFHPIKETVEEEP` ?
Solution: 3.15

Exercise: What measured protein stability index goes with `DLNSKGKKREFRFHDIKETVVEEP` ?
Solution: 3.57

Exercise: What measured protein stability index goes with `MLNSKGKKREFRFHPIKETVVEEP` ?
Solution: 1.86

Exercise: What measured protein stability index goes with `DLNSKGKKRRFRFHPIKETVVEEP` ?
Solution: 1.96

Exercise: What measured protein stability index goes with `DLNSKGKKREFRFHPIKETVVAEP` ?
Solution: 2.22

Exercise: What measured protein stability index goes with `DLNSKGKKRETRFHPIKETVVEEP` ?
Solution: 4.87

Exercise: What measured protein stability index goes with `DLDSKGKKREFRFHPIKETVVEEP` ?
Solution: 2.79

Exercise: What measured protein stability index goes with `DLNRKGKKREFRFHPIKETVVEEP` ?
Solution: 2.23

Exercise: What measured protein stability index goes with `DLNSKGKKREFRFHPIKGTVVEEP` ?
Solution: 2.1

Exercise: What measured protein stability index goes with `DLNSKRKKREFRFHPIKETVVEEP` ?
Solution: 1.33

Exercise: What measured protein stability index goes with `DLNSKGKKREFYFHPIKETVVEEP` ?
Solution: 4.12
